# System: HSV-1 virus (KOS strain)
# Assay Protocol: HSV-1 viral yields in supernatants of OC3 cells, plaque assay
# Format: cell-based, Herpes simplex virus type 1
# Assay Conditions: OC3 cells pre-treated 2 hours before HSV-1 infection (MOI 5)
Metric: viral yields in the supernatants, pre-treatment

1. C=C(CC[C@@H](C(=O)O)[C@H]1C[C@H](OC(C)=O)[C@@]2(C)C3=C(CC[C@]12C)[C@@]1(C)CC[C@H](O)C(C)(C)[C@@H]1CC3)C(C)C: significantly reduced
2. C=C(CC[C@@H](C(=O)O)[C@H]1CC[C@@]2(C)C3=CC[C@H]4C(C)(C)[C@@H](O)CC[C@]4(C)C3=CC[C@]12C)C(C)C [A6, dehydroeburicoic acid]: significantly reduced
